Measured Ki (cloned human NMB-preferring receptor (BB1) (Homo sapiens, UniProt P28336))
Give the value, in units of nM, as a plain number.

CC(C)c1cccc(C(C)C)c1NC(=O)N[C@@](C)(Cc1c[nH]c2ccccc12)C(=O)NCC1(c2ccccn2)CCCCC1 : 5

## Input What measured Ki goes with CC(C)c1cccc(C(C)C)c1NC(=O)N[C@](C)(Cc1c[nH]c2ccccc12)C(=O)N[C@H]1CCc2ccccc21 ?
## Output 130

## Input Give the measured Ki of CC(C)c1cccc(C(C)C)c1NC(=O)NC(C)(Cc1c[nH]c2ccccc12)C(=O)NCCC1CCCCC1 (stereo not drawn) .
## Output 215

## Input Bench note: what Ki did C[C@@](Cc1c[nH]c2ccccc12)(NC(=O)Nc1ccc([N+](=O)[O-])cc1)C(=O)NCC1(c2ccccn2)CCCCC1 show?
## Output 0.15

## Input Quick one: Ki of CC(C)c1cccc(C(C)C)c1NC(=O)NC(C)(Cc1ccccn1)C(=O)NCC1(c2ccccn2)CCCCC1 (stereo not drawn) ?
## Output 35

## Input Which Ki is reported for this molecule? C[C@@](Cc1c[nH]c2ccccc12)(NC(=O)Nc1ccc(C(F)(F)F)cc1)C(=O)NCC1(c2ccccn2)CCCCC1
## Output 2
